Reported MIC values follow for various compounds
- Tested on: E. coli C 165
- METHOD_SUMMARY: MIC, test tube series dilution test, E. coli C 165
- Assay type: cell-based
- EXPERIMENTAL_CONTEXT: 24 hours, 37°C

Here's what some known entries look like.
CC1(C)S[C@@H]2[C@H](NC(=O)[C@H](NC(=O)c3ccc(NC(=O)Nc4ccc(F)cc4)cc3)c3ccccc3)C(=O)N2[C@H]1C(=O)O | ~ 4 U/ml
CC1(C)S[C@@H]2[C@H](NC(=O)[C@H](NC(=O)c3ccc(NC(=O)CN=[N+]=[N-])cc3)c3ccccc3)C(=O)N2[C@H]1C(=O)O | ~ 16 U/ml

Task: Query (compound): CC1(C)S[C@@H]2[C@H](NC(=O)[C@H](NC(=O)c3ccc(NC(=O)c4ccc(F)cc4)cc3)c3ccccc3)C(=O)N2[C@H]1C(=O)O ; field requested: MIC
Output: ~ 8 U/ml
